- test_name: Short-term stability in spiked pooled human plasma (bench-top, 4 °C, 56 °C)
- test_settings: validation standard MOV
measured_metric: Short-time stability (24h, RT, with daylight) Accuracy [%] (%)

[[record]]
compound = "CCCS(=O)(=O)Nc1ccc(F)c(C(=O)c2c[nH]c3ncc(-c4ccc(Cl)cc4)cc23)c1F [Vemurafenib]"
recorded_result = 89.3

[[record]]
compound = "O=C(c1cc(Cc2n[nH]c(=O)c3ccccc23)ccc1F)N1CCN(C(=O)C2CC2)CC1 [Olaparib]"
recorded_result = 89.4

[[record]]
compound = "CN(C)C/C=C/C(=O)Nc1cc2c(Nc3ccc(F)c(Cl)c3)ncnc2cc1O[C@H]1CCOC1 [Afatinib]"
recorded_result = 89.4

[[record]]
compound = "O=C1CN2Cc3c(ccc(Cl)c3Cl)N=C2N1 [Anagrelide]"
recorded_result = 96.0

[[record]]
compound = "C=CC(=O)Nc1cc(Nc2nccc(-c3cn(C)c4ccccc34)n2)c(OC)cc1N(C)CCN(C)C [Osimertinib]"
recorded_result = 75.7

[[record]]
compound = "C[C@@H](Oc1cc(-c2cnn(C3CCNCC3)c2)cnc1N)c1c(Cl)ccc(F)c1Cl [Crizotinib]"
recorded_result = 95.3

[[record]]
compound = "CNCc1ccc(-c2[nH]c3cc(F)cc4c3c2CCNC4=O)cc1 [Rucaparib]"
recorded_result = 100.5

[[record]]
compound = "Nc1cccc2c1CN(C1CCC(=O)NC1=O)C2=O (centres unmarked) [Lenalidomide]"
recorded_result = 58.7

